melting point reference
recorded-metric: melting point

                                   compound   experimental_result
0  COC(=O)c1nc(-c2ccc(Cl)c(OCC(F)F)c2Cl)cc(N)c1Cl         113 to 115 °C
1    COC(=O)c1nc(-c2ccc(F)c(F)c2F)cc(N)c1Cl         163 to 164 °C
2  CCOc1cc(-c2cc(N)c(Cl)c(C(=O)OC)n2)c(F)cc1Cl         115 to 116 °C
3  CCOc1c(Cl)ccc(-c2cc(N)c(Cl)c(C(=O)OC)n2)c1Cl         132 to 133 °C
4  COc1c(Cl)ccc(-c2cc(N)c(Cl)c(C(=O)O)n2)c1Cl [Compound 103]  179 to 180 °C (dec.)

====

- System: redroot pigweed (Amaranthus retroflexus)
- test-details: Postemergence herbicidal activity
- Format: in vivo
- condition-set: Amaranthus retroflexus, post-emergence, 336 h, post-emergent, 140 g ai/ha, after 14 days; read-out: % Control AMARE
recorded-metric: pest or weed control at 140 g/ha (%)

>>> df
                                 smiles_str                   recorded_metric  experimental_result
0  COC(=O)c1nc(-c2ccc(Cl)c(OCC(F)F)c2F)cc(N)c1Cl  pest or weed control at 140 g/ha                  100
1   COC(=O)c1nc(-c2ccc(F)c(OC)c2F)cc(N)c1Cl  pest or weed control at 140 g/ha                  100
2  COc1c(C(F)(F)F)ccc(-c2cc(N)c(Cl)c(C(=O)O)n2)c1F  pest or weed control at 140 g/ha                   80
3    COC(=O)c1nc(-c2ccc(F)c(F)c2F)cc(N)c1Cl  pest or weed control at 140 g/ha                  100
4  CNc1c(Cl)ccc(-c2cc(N)c(Cl)c(C(=O)O)n2)c1F  pest or weed control at 140 g/ha                  100

====

- Tested on: Papaver rhoeas
- test-details: Postemergence herbicidal activity in cereal crops
- Type: in vivo
- condition-set: Papaver rhoeas, post-emergence, 480 h, post-emergent, 35 g ai/ha, after 20-22 days; read-out: % Control PAPRH
recorded-metric: pest or weed control at 35 g/ha

In [3]: df
Out[3]:
                                   molecule                  recorded_metric  experimental_result
0  COC(=O)c1nc(-c2ccc(Cl)c(OC)c2Cl)cc(N)c1Cl [Compound 44]  pest or weed control at 35 g/ha                  90%
1  COC(=O)c1nc(-c2ccc(Cl)c(C(F)C(F)(F)F)c2F)cc(N)c1Cl (centres unmarked) [Compound 65]  pest or weed control at 35 g/ha                  90%
2  COC(=O)c1nc(-c2ccc(Cl)c(OC)c2F)c(F)c(N)c1Cl [Compound 14]  pest or weed control at 35 g/ha                  95%
3  COC(=O)c1nc(-c2c(F)cc(C)c(OC)c2F)cc(N)c1Cl [Compound 51]  pest or weed control at 35 g/ha                 100%
4  COc1c(Cl)ccc(-c2cc(N)c(Cl)c(C(=O)O)n2)c1Cl [Compound 103]  pest or weed control at 35 g/ha                 100%
